- assayed target: HER2 on the surface of N87 gastric cancer cells (human, UniProt P04626 23-1255)
- assay remarks: cell-based or functional assay
Hi there, I'd appreciate the recorded % cell viability (AL1) for every entry that follows.
Hey, just the number and the unit after it is fine.

Request: What value of % cell viability (AL1) has been reported for the following binder? 30CHS-12 source scFv (scFv) DIQMTQSPSSLSASVGDRVTITCKSNQNLLDSGNQGTFLNWYQQKPGKAPKLLIFGTSHLYSGVPSRFSGSGSGTDFTLTISSLQPEDFATYYCSQSTDLPFTFGQGTKVEIKREVQLVESGGGLVQPGGSLRLSCAASGFTISDYWIHWVRQAPGKGLEWVAGINPYYGVTVYADSVKGRFTISADTSKNTAYLQMNSLRAEDTAVYYCARGGVLDYWGQGTLVTVSSASAAA
Response: 64.9%

Request: And what about the binder 29TYL#1 source scFv (scFv) DIQMTQSPSSLSASVGDRVTITCKSNQNLLLSNGWTFLNWYQQKPGKAPKLLISRISDLYSGVPSRFSGSGSGTDFTLTISSLQPEDFATYYCFQASDFPYTFGQGTKVEIKREVQLVESGGGLVQPGGSLRLSCKASGYTFSTGSMHWVRQAPGKGLEWVAHINPHFGLTLYADSVKGRFTISADTSKNTAYLQMNSLRAEDTAVYYCAGSGFDYWGQGTLVTVSSASAAA ?
Response: 67.5%
